Measured inhibition accompanies every entry in the list below.
# ASSAY_DETAILS: STAT1 signaling inhibitors, primary screen, cell-based, HTS, luciferase reporter (AID 920);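 note: 0% = IFN-gamma with DMSO and 100% = IFN-gamma with 300 µM nifuroxazide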
# SETUP_CONDITIONS: NIH 3T3 STAT1-luciferase reporter, IFN-gamma, luminescence; at 5.5 µM; hits give high values
In all, about 200,000 compounds went through this assay and about 700 (0.35%) were called active. Shown is part of a subset that was picked to be rich in actives.

{"COMPOUND": "CCN(CC)C(=O)CN(c1cccc([N+](=O)[O-])c1)S(=O)(=O)c1ccccc1", "inhibition / %": 3.4}
{"COMPOUND": "CCc1nnc(NC(=O)CCCSc2nc3ccccc3[nH]2)s1", "inhibition / %": 20.4}
{"COMPOUND": "CCn1c2ccccc2c2cc(NC(=O)COC(=O)c3cc(S(=O)(=O)N4CCCCC4)ccc3Cl)ccc21", "inhibition / %": 5.58}
{"COMPOUND": "Cc1ccc2[nH]cc(CCCN3C(=O)c4ccccc4C3=O)c2c1", "inhibition / %": 0.21}
{"COMPOUND": "Cc1ccsc1C(=O)OCC(=O)c1cc(C)n(CC2CCCO2)c1C (configuration not stated)", "inhibition / %": 77.5}
{"COMPOUND": "COC(=O)C1=C(C)N(C(C)c2ccccc2)C(=O)/C1=C\\c1ccco1 (configuration not stated)", "inhibition / %": 6.65}
{"COMPOUND": "CS(=O)(=O)N1CCC(C(=O)N2CCN(c3ccccc3)CC2)CC1", "inhibition / %": 7.02}
{"COMPOUND": "Cn1c(N)c(C(=O)COC(=O)/C=C/c2ccc(OC(F)F)cc2)c(=O)n(C)c1=O", "inhibition / %": 5.58}
{"COMPOUND": "Oc1ccc(-c2nncn2-c2ccccc2)cc1", "inhibition / %": -0.73}
{"COMPOUND": "CCc1cc2c(SCC(=O)Nc3ncc(Cl)c(C)c3Cl)ncnc2s1", "inhibition / %": -4.22}
{"COMPOUND": "S=C(Nc1ccc2c(c1)OCO2)N1CCCC1", "inhibition / %": -9.5}
{"COMPOUND": "O=C(c1cccc([N+](=O)[O-])c1)N1CCN(C(=O)c2ccco2)CC1", "inhibition / %": 1.07}
{"COMPOUND": "Nc1ccc(OCC(O)C[n+]2ccc(CCS(=O)(=O)[O-])cc2)cc1 (configuration not stated)", "inhibition / %": 0.06}
{"COMPOUND": "c1ccc(C2CNCc3c2ccc2ccccc32)cc1 (configuration not stated)", "inhibition / %": 14.8}
{"COMPOUND": "COc1cc(SC)ccc1C(=O)Nc1nc(C)cs1", "inhibition / %": 93.3}
{"COMPOUND": "COCCn1c(C)cc(C2=NNC(=Nc3ccc(F)cc3)SC2)c1C", "inhibition / %": -36.4}
{"COMPOUND": "CC(=O)c1ccc(N2CCN(CC(=O)Nc3ccccc3N3CCOCC3)CC2)cc1", "inhibition / %": 15}
{"COMPOUND": "O=C(/C=C/c1ccccc1[N+](=O)[O-])NCC1CCCO1 (configuration not stated)", "inhibition / %": -5.46}
{"COMPOUND": "Cc1cccc(C(=O)Nc2ccc3c(c2)C(=O)N(CC(C)C)C3=O)c1", "inhibition / %": -24.8}
{"COMPOUND": "O=C(CC(=O)Nc1ccc(Cl)c(Cl)c1)N/N=C/c1ccc(O)cc1", "inhibition / %": 6.41}
{"COMPOUND": "COc1cc2c(C(=O)N3CCN(C)CC3)c(CSc3ccccc3)n(C)c2cc1Br", "inhibition / %": 10.4}
{"COMPOUND": "OCCC1CN(Cc2cccc(O)c2)CCN1CCc1ccccc1 (configuration not stated)", "inhibition / %": 8.18}
{"COMPOUND": "CCCCOc1ccc(C(=O)NCC(=O)OCC(=O)N2CCN(S(=O)(=O)c3ccc(C)cc3C)CC2)cc1", "inhibition / %": -1.91}
{"COMPOUND": "CCCOC1CCCN(Cc2cn(C)nc2-c2ccccc2F)C1 (configuration not stated)", "inhibition / %": -4.18}
{"COMPOUND": "CCCN1C(=O)C(Cc2nc3ccccc3c(=O)n2-c2ccccc2)c2cc(C)ccc21 (configuration not stated)", "inhibition / %": 6.11}
{"COMPOUND": "CC(C)/C=N/NC(=O)c1cc(Br)ccc1O", "inhibition / %": 11.2}
{"COMPOUND": "Cc1ccc(C2=Nc3c(ccc4ccccc34)C(c3ccncc3)=NN2)cc1", "inhibition / %": 66.7}
{"COMPOUND": "COc1ccc(C2c3c(C)nn(-c4ccccc4)c3NC(=O)N2c2ccccc2)cc1 (configuration not stated)", "inhibition / %": -3.45}
{"COMPOUND": "S=C(Nc1ccc(Br)cc1Cl)N1CCC2(CC1)OCCO2", "inhibition / %": -18.2}
{"COMPOUND": "N/C(=N\\OC(=O)Cc1ccccc1[N+](=O)[O-])c1ccc(Br)cc1", "inhibition / %": 0.32}
{"COMPOUND": "COc1ccccc1CNC(=O)c1ccc(SC)cc1OC", "inhibition / %": -9.83}
{"COMPOUND": "Cc1nc2ccc(NC(=S)N3CCC(C)CC3)cc2nc1C", "inhibition / %": -19.9}
{"COMPOUND": "Cc1cccc(NC(=O)c2ccc3ccccc3n2)n1", "inhibition / %": -31.6}
{"COMPOUND": "Cc1nc2ccccc2c(C)c1C(=O)c1ccc(F)cc1", "inhibition / %": 15.9}
{"COMPOUND": "Cc1ccc2[nH]c(C)c(CCNC(=O)NC3CCCCC3)c2c1", "inhibition / %": 8.57}
{"COMPOUND": "COc1cc(SC)ccc1C(=O)Nc1cc(C)ccn1", "inhibition / %": -2.53}
{"COMPOUND": "Cc1ccc(CN(C)CC(=O)Nc2cccc([N+](=O)[O-])c2)o1", "inhibition / %": 8.85}

---

Entries annotated with measured inhibition
# ASSAY_DETAILS: STAT1 signaling inhibitors, primary screen, cell-based, HTS, luciferase reporter (AID 920);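 note: 0% = IFN-gamma with DMSO and 100% = IFN-gamma with 300 µM nifuroxazide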
# SETUP_CONDITIONS: NIH 3T3 STAT1-luciferase reporter, IFN-gamma, luminescence; at 5.5 µM; hits give high values
The whole screen tested about 200,000 compounds, of which about 700 (0.35%) were called active. What follows is part of a selection rich in actives, with near analogues and random picks from the rest.

{"MOLECULE": "O=C(NCCCO)/C(=C\\C=C\\c1ccccc1)NC(=O)c1ccccc1Cl", "inhibition, %": 3.7}
{"MOLECULE": "CCOC(=O)C1(CCOc2ccccc2)CCN(C(=O)c2cncs2)CC1", "inhibition, %": -0.02}
{"MOLECULE": "Cc1ccc(N/C(N)=N/c2nc(C(F)(F)F)cc(C(F)(F)F)n2)cc1", "inhibition, %": -12.9}
{"MOLECULE": "COc1ccc(C(=O)/C=C/Nc2ccccn2)cc1", "inhibition, %": 82.5}
{"MOLECULE": "Cc1ncoc1C(=O)NCCC(c1ccccc1)c1ccccc1", "inhibition, %": -1.04}
{"MOLECULE": "COc1ccc(-c2csc(Nc3ccccn3)n2)cc1", "inhibition, %": -12.9}
{"MOLECULE": "CC(CC(=O)O)CC(=O)NNC(=O)c1cccc(Br)c1 (stereo not drawn)", "inhibition, %": -8.27}
{"MOLECULE": "CCc1ccc(-c2nn(-c3ccccc3)cc2CSC(=N)N)cc1", "inhibition, %": -3.6}
{"MOLECULE": "C=CCN1C(=O)C(Cc2ccc(OCC)cc2)SC1=Nc1ccc(C(=O)O)cc1 (stereo not drawn)", "inhibition, %": 11.1}
{"MOLECULE": "COc1ccc(-c2nc(-c3ccccc3)no2)c(OC)c1", "inhibition, %": 60.8}
{"MOLECULE": "O=C(CSC(=S)N1CCOCC1)c1ccccc1", "inhibition, %": -27.1}
{"MOLECULE": "COc1ccc(-c2noc(-c3cccc(OC)c3OC)n2)cc1OC", "inhibition, %": -49.2}
{"MOLECULE": "CC1CC(C)CN(C(=O)CSc2ccsc2[N+](=O)[O-])C1 (stereo not drawn)", "inhibition, %": 1.9}
{"MOLECULE": "Cn1cc([N+](=O)[O-])c(C(=O)Nc2ccc3c(c2)OCCO3)n1", "inhibition, %": 48.8}
{"MOLECULE": "COc1ccc2c(CC(=O)OCC(=O)Nc3ccccc3[N+](=O)[O-])coc2c1", "inhibition, %": 0.3}
{"MOLECULE": "O=C1c2ccccc2NC(c2ccccn2)N1NS(=O)(=O)c1ccccc1 (stereo not drawn)", "inhibition, %": -5.92}
{"MOLECULE": "CS(=O)(=O)N(Cc1ccccc1)c1ccc(C(=O)NN=C2CCCCCC2)cc1", "inhibition, %": 6.58}
{"MOLECULE": "CCN(/N=C/c1ccccc1)c1cc(=O)n(C)c(=O)[nH]1", "inhibition, %": 1.47}
{"MOLECULE": "Cc1cc(O)c(NC(=O)c2ccc(C)c([N+](=O)[O-])c2)cc1C", "inhibition, %": -3.86}
{"MOLECULE": "Cn1cc([N+](=O)[O-])c(C(=O)Nc2cnn(Cc3ccc(F)cc3)c2)n1", "inhibition, %": 20.5}
{"MOLECULE": "CCOc1cc(NC(=O)c2ccccn2)c(OCC)cc1NC(=O)c1ccc(OC)cc1", "inhibition, %": 3.8}
{"MOLECULE": "O=C1CC(c2c(F)cccc2Cl)C(n2cncn2)C(O)=C1C1NCCc2ccccc21 (stereo not drawn)", "inhibition, %": -3.15}
{"MOLECULE": "Cc1ccc(NC(=S)N2CCN(c3ncccn3)CC2)cc1C", "inhibition, %": 0.8}
